assay target: Short transient receptor potential channel 4 (Mus musculus)
experiment: positive allosteric modulators of TRPC4, primary screen, cell-based, mouse TRPC4beta, HEK293 mu-opioid, Fluo-4 calcium (AID 2227)
settings: DAMGO EC20, Fluo-4 Ca2+ flux, at 10 µM
About 1,300 (0.42%) of roughly 310,000 compounds were called active.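 The calls were made as follows: active = B-score of calcium response area above 5 SD of library B-scores, with initial fluorescence ratio within 5 SD of library; inactive = the rest.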 This is one part of a sample in which actives are shown more often than they occur.
Output constraint: value belongs to active, inactive

Answered cases to consult:
INSERT INTO results (molecule, label_class) VALUES
  ('COc1cc(/C=C2/SC(=S)N(Cc3ccccc3)C2=O)cc(OC)c1O', 'inactive'),
  ('O=C(Nc1cccc(F)c1)c1coc(=O)c(Br)c1', 'inactive'),
  ('CCOc1ccc(N2C(=O)/C(=C/c3ccc(C)o3)N(C)C2=S)cc1', 'inactive'),
  ('CCn1cc(C(=O)NCC(=O)NC(C)(C)CO)c(=O)c2cc3c(cc21)OCO3', 'inactive'),
  ('O=C1/C(=C\c2ccsc2)NC(=S)N1c1ccccc1', 'inactive'),
  ('CN1CCN(c2ccc(CNS(=O)(=O)c3cccc(F)c3)cc2)CC1', 'inactive'),
  ('CCOC(=O)N1CCN(CCC(=O)Nc2ccccc2)CC1', 'inactive'),
  ('CC1CCCCC1NC(=O)CO/N=C/c1ccc(OC(F)F)cc1 (configuration not stated)', 'inactive'),
  ('O=C(COc1ccc(Cl)cc1)Nc1ccc2c(c1)OCO2', 'inactive'),
  ('CCOC(=O)C(CC)/C(C)=N\NC(=O)c1cccc(C)c1 (configuration not stated)', 'inactive');

What was the test verdict on `Fc1ccccc1/C=N/Nc1cc(N2CCCCC2)ncn1` ?
inactive

Repeat for the following molecule: CCCCN(C)CCNC(=O)C1CCCN(S(=O)(=O)c2cccc3nsnc23)C1 (configuration not stated)
active

Please do the same for `O=C(CN1CCN(c2ccccn2)CC1)N1CCc2ccccc21` as well.
inactive

Also check `O=C(CN1CCN(Cc2ccccc2)CC1)Nc1ccc(F)c(F)c1`
inactive

Now try O=C(c1ccco1)N1CCN(C(=O)C2CCCN(S(=O)(=O)c3cccc4nsnc34)C2)CC1 (configuration not stated) .
inactive

How about `CCC(=O)/C(=C(/O)c1ccccc1)c1nc2ccccc2[nH]1` ?
inactive

# iterate: `Cc1ccc(C(=O)NCCc2nnc(SCC(=O)Nc3cccc(C(=O)O)c3)n2C)cc1`
inactive

Please give the result for `CN(C)c1ccc(/C=C2\NC(=S)N(Cc3ccccc3)C2=O)cc1` too.
active

Field entry: `Cc1ccccc1OC/C(O)=C(\C#N)c1nc2ccccc2[nH]1`
inactive

Next molecule up: `CCc1c(C)nc2c(-c3ccccc3)c(C)nn2c1Nc1ccc(NC(C)=O)cc1`
active

Entry to check: CCCCN(CC)C(=O)C1CCCN(S(=O)(=O)c2cccc3nsnc23)C1 (configuration not stated)
inactive

Same again, this time with `CC(=O)O[C@]1(C(C)=O)CC[C@H]2[C@@H]3C=C(C)C4=CC(=O)CC[C@]4(C)[C@H]3CC[C@@]21C`
inactive
